biological target: mGluR5 (Homo sapiens, UniProt P41594); construct: host or cells: HEK293 (human embryonic kidney) cells stably expressing m-GluR5; assay: Assay for m-GluR5 activity using FDSS6000 (calcium mobilization by L-glutamate in mGluR5/HEK293 cells); type: cell-based; conditions: HEK293; 10 μM compound; L-glutamate 10 uM; HEK cells expressing m-GluR5; read-out: % Inhibition rate (mGluR5)
Sequence (P41594 21-1212): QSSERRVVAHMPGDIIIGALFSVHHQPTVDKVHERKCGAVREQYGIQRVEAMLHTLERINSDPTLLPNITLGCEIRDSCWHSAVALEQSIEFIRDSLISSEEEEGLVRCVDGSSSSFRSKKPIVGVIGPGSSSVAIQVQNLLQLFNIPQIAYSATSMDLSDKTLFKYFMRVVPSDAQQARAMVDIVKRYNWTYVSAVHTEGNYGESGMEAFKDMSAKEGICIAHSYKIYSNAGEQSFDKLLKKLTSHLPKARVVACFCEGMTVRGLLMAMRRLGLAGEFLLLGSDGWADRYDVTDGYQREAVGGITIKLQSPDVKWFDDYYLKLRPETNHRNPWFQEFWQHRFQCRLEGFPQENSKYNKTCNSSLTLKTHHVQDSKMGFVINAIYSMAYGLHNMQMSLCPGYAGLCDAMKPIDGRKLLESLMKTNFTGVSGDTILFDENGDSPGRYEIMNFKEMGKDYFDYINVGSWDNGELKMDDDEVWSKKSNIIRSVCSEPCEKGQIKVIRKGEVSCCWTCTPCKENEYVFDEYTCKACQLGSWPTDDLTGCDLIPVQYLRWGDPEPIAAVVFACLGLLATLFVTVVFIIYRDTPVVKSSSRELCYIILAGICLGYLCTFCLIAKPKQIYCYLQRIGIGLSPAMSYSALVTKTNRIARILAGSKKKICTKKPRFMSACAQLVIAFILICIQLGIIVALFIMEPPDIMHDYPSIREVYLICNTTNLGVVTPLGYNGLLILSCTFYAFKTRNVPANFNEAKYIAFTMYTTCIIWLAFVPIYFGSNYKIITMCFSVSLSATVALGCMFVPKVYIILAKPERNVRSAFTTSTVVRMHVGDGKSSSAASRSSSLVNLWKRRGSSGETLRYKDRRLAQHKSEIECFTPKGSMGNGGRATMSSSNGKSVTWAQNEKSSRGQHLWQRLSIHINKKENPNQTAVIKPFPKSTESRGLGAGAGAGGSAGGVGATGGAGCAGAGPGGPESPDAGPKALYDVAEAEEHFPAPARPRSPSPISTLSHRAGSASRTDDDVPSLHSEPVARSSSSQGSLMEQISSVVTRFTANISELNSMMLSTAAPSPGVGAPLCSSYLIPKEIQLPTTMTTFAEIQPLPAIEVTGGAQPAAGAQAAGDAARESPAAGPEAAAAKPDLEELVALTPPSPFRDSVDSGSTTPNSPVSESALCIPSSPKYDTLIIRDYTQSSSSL
endpoint_label: inhibition at 10 µM (%)
Enter your answer as a number in %; do not include the unit.

The reported inhibition at 10 µM of the compound `COc1cccc2nc(C#Cc3cccnc3)ccc12` was 67.7

Data point: `Cc1ccc(C#Cc2ccc3ccccc3n2)nc1` ; inhibition at 10 µM = 66.3

Short answer for `Fc1ccc(C#Cc2ccc3ccccc3n2)nc1` : inhibition at 10 µM was 63.3

// recorded inhibition at 10 µM for `COc1cccc(C#Cc2ccc3ccccc3n2)n1` : 48.6

Consider `Cc1cccnc1C#Cc1ccc2ccccc2n1` . Its measured inhibition at 10 µM is 40.1

For this compound ( `C(#Cc1ccc2ccccc2n1)c1cncnc1` ), measured inhibition at 10 µM is 22.4

Form field inhibition at 10 µM, entry `Clc1cccc2nc(C#Cc3ccccc3)ccc12` : 8.02

Per the record, `Oc1cccc2nc(C#Cc3ccccn3)ccc12` has inhibition at 10 µM of 22.1

Form: compound = `C(#Cc1ncccn1)c1ccc2ccccc2n1` ; inhibition at 10 µM = 28.6

====

target: mGluR5 (Homo sapiens, UniProt P41594); construct: host or cells: HEK293 (human embryonic kidney) cells stably expressing m-GluR5; assay: Assay for m-GluR5 activity using FDSS6000 (calcium mobilization by L-glutamate in mGluR5/HEK293 cells); type: cell-based; conditions: HEK293; 10 μM compound; L-glutamate 10 uM; HEK cells expressing m-GluR5; read-out: % Inhibition rate (mGluR5)
So basically: inhibition at 10 µM at 60% or higher? That is Satisfied. Lower than 60%? That is Not satisfied.

Given Cc1ccnc(C#Cc2ccc3ccccc3n2)c1 [Example 34] , state whether its inhibition at 10 µM is at least 60%.
Satisfied

Is it the case that FC(F)(F)c1ccnc(C#Cc2ccc3ccccc3n2)n1 [Example 43] has inhibition at 10 µM reaching or exceeding 60%?
Not satisfied

Is inhibition at 10 µM for N#Cc1cccc(C#Cc2ccc3ccccc3n2)n1 [Example 39, 6-(Quinoline-2-ylethynyl)picolinonitrile] at or above 60%?
Satisfied

# check: inhibition at 10 µM of C(#Cc1ccc2ccccc2n1)c1ccccn1 [Example 26, 2-(Pyridine-2-ylethynyl)quinoline] is greater than or equal to 60%
Satisfied

Dear colleague, could you confirm whether Oc1cccc2nc(C#Cc3ccccc3)ccc12 [Example 16, 2-(Phenylethynyl)quinoline-5-ol] has inhibition at 10 µM at or above 60%?
Not satisfied

Decide: inhibition at 10 µM of COc1cccc2nc(C#Cc3ccccc3)ccc12 [Example 14, 5-Methoxy-2-(phenylethynyl)quinoline] >= 60%?
Satisfied

Does inhibition at 10 µM meet or surpass 60% for Brc1cccc2nc(C#Cc3ccccc3)ccc12 [Example 18, 5-Bromo-2-(phenylethynyl)quinoline] ?
Not satisfied

Does the compound Clc1cccc2nc(C#Cc3cccnc3)ccc12 [Example 24] have recorded inhibition at 10 µM that is 60% or more?
Not satisfied

# bool: inhibition at 10 µM of Brc1cccc2nc(C#Cc3cccnc3)ccc12 [Example 25] >= 60%
Not satisfied

====

molecular target: mGluR5 (Homo sapiens, UniProt P41594); construct: host or cells: HEK293 (human embryonic kidney) cells stably expressing m-GluR5; experiment: Assay for m-GluR5 activity using FDSS6000 (calcium mobilization by L-glutamate in mGluR5/HEK293 cells); assay type: cell-based; details: HEK293; 10 μM compound; L-glutamate 10 uM; HEK cells expressing m-GluR5; read-out: % Inhibition rate (mGluR5)
Exercise: for every item that follows, state its recorded inhibition at 10 µM.
A number alone suffices; assume %.

// recorded inhibition at 10 µM for `C(#Cc1ccc2ccccc2n1)c1ccccc1` : 67.7

So, `FC(F)(F)c1ccc(C#Cc2ccc3ccccc3n2)nc1` ? Its inhibition at 10 µM was 50.7

Notebook: `N#Cc1ccnc(C#Cc2ccc3ccccc3n2)c1` , inhibition at 10 µM read as 76.1

Given item `Fc1cccnc1C#Cc1ccc2ccccc2n1` , the value recorded as its inhibition at 10 µM is 55.2

====

biological target: mGluR5 (Homo sapiens); construct: host or cells: HEK293 (human embryonic kidney) cells stably expressing m-GluR5; test: Assay for m-GluR5 activity using FDSS6000 (calcium mobilization by L-glutamate in mGluR5/HEK293 cells); format: cell-based; settings: HEK293; 10 μM compound; L-glutamate 10 uM; HEK cells expressing m-GluR5; read-out: % Inhibition rate (mGluR5)
Everything with inhibition at 10 µM lower than 70% is false (0); everything else, including exactly 70%, is true (1).

Item CCOc1cccc2nc(C#Cc3cccnc3)ccc12 [Example 21] with inhibition at 10 µM of 70% or above?
false (0)

Determine whether this compound has inhibition at 10 µM no lower than 70%: FC(F)(F)c1cccc(C#Cc2ccc3ccccc3n2)n1 [Example 38]
false (0)

Hi team, for Fc1cnc(C#Cc2ccc3ccccc3n2)nc1 [Example 44] , is the recorded inhibition at 10 µM at or above 70%?
false (0)

Determine whether this compound has inhibition at 10 µM no lower than 70%: Brc1cccc2nc(C#Cc3ccccn3)ccc12 [Example 29]
true (1)

Does inhibition at 10 µM meet or surpass 70% for C(#Cc1ccc2ccccc2n1)c1cccnc1 [Example 19, 2-(Pyridine-3-ylethynyl)quinoline] ?
false (0)

====

molecular target: mGluR5 (Homo sapiens, UniProt P41594); construct: host or cells: HEK293 (human embryonic kidney) cells stably expressing m-GluR5; experiment: Assay for m-GluR5 activity using FDSS6000 (calcium mobilization by L-glutamate in mGluR5/HEK293 cells); type: cell-based; conditions: HEK293; 1 μM compound; L-glutamate 10 uM; HEK cells expressing m-GluR5; read-out: % Inhibition rate (mGluR5)
Assign yes whenever inhibition at 1 µM does not fall below 20%; assign no whenever it does.

hey, is inhibition at 1 µM for this one >= 20%? `C(#Cc1ccc2ccccc2n1)c1cncnc1`
no

Given `FC(F)(F)c1ccnc(C#Cc2ccc3ccccc3n2)c1` , state whether its inhibition at 1 µM is at least 20%.
yes

Check this compound for inhibition at 1 µM at or above 20%: `Oc1cccc2nc(C#Cc3cccnc3)ccc12`
yes

Does the reported inhibition at 1 µM for `Fc1cnc(C#Cc2ccc3ccccc3n2)nc1` fall at or above the 20% mark?
no

Tell me whether inhibition at 1 µM is at least 20% here: `Brc1cccc2nc(C#Cc3cccnc3)ccc12`
yes

Textbook exercise: given the entry `Brc1cccc2nc(C#Cc3ccccc3)ccc12` , state whether its inhibition at 1 µM is greater than or equal to 20%.
yes

Please tell me: is the compound `Oc1cccc2nc(C#Cc3ccccn3)ccc12` at or over 20% in terms of inhibition at 1 µM?
no

Identify whether the reported inhibition at 1 µM of the following compound is 20% or greater: `C(#Cc1ncccn1)c1ccc2ccccc2n1`
no

Determine whether measured inhibition at 1 µM meets or exceeds 20% for `C(#Cc1ccc2ccccc2n1)c1cccnc1`
yes

Is inhibition at 1 µM for `FC(F)(F)c1ccnc(C#Cc2ccc3ccccc3n2)n1` at or above 20%?
no

Hi, just wondering whether `Fc1cccnc1C#Cc1ccc2ccccc2n1` shows inhibition at 1 µM of 20% or higher.
yes

Hi team, for `FC(F)(F)c1cccnc1C#Cc1ccc2ccccc2n1` , is the recorded inhibition at 1 µM at or above 20%?
no

hey, is inhibition at 1 µM for this one >= 20%? `COc1cccc(C#Cc2ccc3ccccc3n2)n1`
no

Could you tell me if the measured inhibition at 1 µM of `Cc1cccnc1C#Cc1ccc2ccccc2n1` reaches 20% or more?
no

Has `N#Cc1cccc(C#Cc2ccc3ccccc3n2)n1` a recorded inhibition at 1 µM greater than or equal to 20%?
yes

Hi team, for `Cc1ccnc(C#Cc2ccc3ccccc3n2)c1` , is the recorded inhibition at 1 µM at or above 20%?
yes

Textbook exercise: given the entry `N#Cc1ccnc(C#Cc2ccc3ccccc3n2)c1` , state whether its inhibition at 1 µM is greater than or equal to 20%.
yes

Test whether the compound `Clc1cccc2nc(C#Cc3ccccc3)ccc12` records inhibition at 1 µM of 20% or higher.
no

Evaluate `Brc1cccc2nc(C#Cc3ccccn3)ccc12` : inhibition at 1 µM at minimum 20%?
yes

Kindly determine if inhibition at 1 µM recorded for `Clc1cccc2nc(C#Cc3ccccn3)ccc12` is above or exactly 20%.
yes

Confirm if inhibition at 1 µM reported for the compound `COc1cccc2nc(C#Cc3ccccc3)ccc12` is 20% or above.
yes

Textbook exercise: given the entry `Cc1ccc(C#Cc2ccc3ccccc3n2)nc1` , state whether its inhibition at 1 µM is greater than or equal to 20%.
yes

Test whether the compound `FC(F)(F)c1ccc(C#Cc2ccc3ccccc3n2)nc1` records inhibition at 1 µM of 20% or higher.
no

Could you tell me if the measured inhibition at 1 µM of `CCOc1cccc2nc(C#Cc3cccnc3)ccc12` reaches 20% or more?
yes

Determine whether measured inhibition at 1 µM meets or exceeds 20% for `Oc1cccc2nc(C#Cc3ccccc3)ccc12`
no

Evaluate `Clc1cccc2nc(C#Cc3cccnc3)ccc12` : inhibition at 1 µM at minimum 20%?
no

Tell me whether inhibition at 1 µM is at least 20% here: `COc1cccc2nc(C#Cc3cccnc3)ccc12`
yes

Answer whether inhibition at 1 µM of `C(#Cc1ccc2ccccc2n1)c1ccccc1` is greater than or equal to 20%.
yes

// inclusive: inhibition at 1 µM at least 20%? input: `FC(F)(F)c1cccc(C#Cc2ccc3ccccc3n2)n1`
no

Determine whether this compound has inhibition at 1 µM no lower than 20%: `C(#Cc1ccc2ccccc2n1)c1ccccn1`
yes

Confirm if inhibition at 1 µM reported for the compound `Fc1cccc(C#Cc2ccc3ccccc3n2)n1` is 20% or above.
yes

Dear colleague, could you confirm whether `Fc1ccc(C#Cc2ccc3ccccc3n2)nc1` has inhibition at 1 µM at or above 20%?
yes
